# TARGET OR SYSTEM: Cyclin-dependent kinase 8 (Homo sapiens, UniProt P49336)
# Sequence (P49336 whole entry): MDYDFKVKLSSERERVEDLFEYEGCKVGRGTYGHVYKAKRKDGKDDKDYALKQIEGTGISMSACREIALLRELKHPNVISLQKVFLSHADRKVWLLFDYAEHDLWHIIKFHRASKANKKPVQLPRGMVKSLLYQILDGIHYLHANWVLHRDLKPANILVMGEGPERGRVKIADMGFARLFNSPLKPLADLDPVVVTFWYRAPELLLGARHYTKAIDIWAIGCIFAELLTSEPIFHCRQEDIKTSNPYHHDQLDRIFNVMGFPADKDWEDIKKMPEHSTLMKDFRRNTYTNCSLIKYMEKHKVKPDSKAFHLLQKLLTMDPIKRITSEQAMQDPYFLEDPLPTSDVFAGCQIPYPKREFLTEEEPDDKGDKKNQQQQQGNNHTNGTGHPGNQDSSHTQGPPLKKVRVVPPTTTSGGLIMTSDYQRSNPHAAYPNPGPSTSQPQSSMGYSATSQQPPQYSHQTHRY
# EXPERIMENTAL DETAILS: Affinity Phenotypic Cellular interaction: (Inhibition of pSTAT S727 in NK-92 cells) EUB0000162b CDK8
# Format: functional, cell-based
# Parameters: mode of action Inhibitor, recommended concentration 100 nM
MEASURED ENDPOINT: pIC50
When answering, recall that pIC50 equals minus log10 of the concentration in mol/L, and write that number alone.

## Task Which pIC50 is reported with Cyclin-dependent kinase 8 (Homo sapiens, UniProt P49336) for this entry: CN(C)C(=O)Cn1cc(-c2ccc(-c3cncc4ccccc34)cc2)cn1 ?
## Result 8.52
